# maps each entry to its CoxA16 SI
Tested on: enterovirus Cox A16
Test method notes: microbe, parasite or virus in culture
Format: cell-based
Condition info: SI, CoxA16, Vero cells
Please respond with just the number, no unit label.

Illustrative cases are given below, each with its answer.
{"Molecule": "CCc1ccc(OCCCCCCN2CCN(c3nccs3)CC2)cc1 [Example 9]", "System name": "enterovirus Cox A16", "Test value": 2.0}
{"Molecule": "Cl.c1ccc(OCCCCCN2CCN(c3nccs3)CC2)cc1 [Example 19]", "System name": "enterovirus Cox A16", "Test value": 6.3}
{"Molecule": "Brc1ccc(OCCCCCCN2CCN(c3nccs3)CC2)cc1 [Example 14]", "System name": "enterovirus Cox A16", "Test value": 5.0}
{"Molecule": "CC(C)(C)c1ccc(OCCCCCN2CCN(c3nccs3)CC2)cc1 [Example 6]", "System name": "enterovirus Cox A16", "Test value": 4.0}

Okay, now this molecule:
Query string: Given the entry c1ccc(OCCCCCCN2CCN(c3nccs3)CC2)cc1 [Example 10] , what CoxA16 SI was observed with enterovirus Cox A16?
Result string: 2.0
